assay: Study of oral pharmacokinetics in rats; conditions: rat, in vivo, male SD rats, p.o., 15 mg/kg, i.v. 1 mg/kg
Measured quantity: bioavailability

Find the recorded bioavailability belonging to CN1C(=O)[C@@H](NC(=O)c2nnc(Cc3ccccc3)[nH]2)Cc2cn(-c3ncccc3OC(F)F)c3cccc1c23 and report it. 57.1%

====

Assay: Study of oral pharmacokinetics in rats
Settings: rat, in vivo, male SD rats, p.o., 15 mg/kg, read-out: AUC0-8
Method: Healthy male SD rats were used as experimental animals. The intragastric (p.o.) administration was performed, with a dosage of 5 mg/kg or 15 mg/kg. Preparation: the compound was dissolved in a formulation made of 1% tween 80, 1% HMPC, and 98% water. […] Samples were taken at 5 minutes, 15 minutes, 30 minutes, 1 hour, 2 hours, 4 hours, 6 hours, and 8 hours after administration, and then the samples were analyzed using liquid chromatography tandem mass spectrometry (LC-MS/MS).
Measured quantity: AUC(0-t)

Find the recorded AUC(0-t) belonging to CN1C(=O)[C@@H](NC(=O)c2nnc(Cc3ccccc3)[nH]2)Cc2cn(-c3ncccc3OC(F)F)c3cccc1c23 and report it. 15900 ng·h/mL

====

Assay: Study of oral pharmacokinetics in rats
Conditions: rat, in vivo, male SD rats, p.o., 15 mg/kg
Method: Healthy male SD rats were used as experimental animals. The intragastric (p.o.) administration was performed, with a dosage of 5 mg/kg or 15 mg/kg. Preparation: the compound was dissolved in a formulation made of 1% tween 80, 1% HMPC, and 98% water. […] Samples were taken at 5 minutes, 15 minutes, 30 minutes, 1 hour, 2 hours, 4 hours, 6 hours, and 8 hours after administration, and then the samples were analyzed using liquid chromatography tandem mass spectrometry (LC-MS/MS).
Measured quantity: Cmax (ng/mL)
Answers are plain numbers, in ng/mL.

Find the recorded Cmax belonging to CN1C(=O)[C@@H](NC(=O)c2nnc(Cc3ccccc3)[nH]2)Cc2cn(-c3ncccc3OC(F)F)c3cccc1c23 and report it. 3930

====

test: Study of oral pharmacokinetics in rats; conditions: rat, in vivo, male SD rats, p.o., 5 mg/kg, i.v. 1 mg/kg
Measured quantity: bioavailability

# Compound, bioavailability
records = [
    ("CN1C(=O)[C@@H](NC(=O)c2nnc(Cc3ccccc3)[nH]2)Cc2cn(-c3ncccc3OC(F)F)c3cccc1c23", "18.3%"),
    ("CN1C(=O)[C@@H](NC(=O)c2nnc(Cc3ccccc3)[nH]2)Cc2cn(-c3ncccc3C(F)(F)F)c3cccc1c23", "28.2%"),
]

Shift focus to the following entry.
Find the recorded bioavailability belonging to CN1C(=O)C(NC(=O)c2nnc(Cc3ccccc3)[nH]2)Cc2cn(-c3ncccc3C(F)(F)F)c3cccc1c23 (racemic) and report it. 31.4%

====

assay: Study of oral pharmacokinetics in rats; settings: rat, in vivo, male SD rats, p.o., 15 mg/kg
Measured quantity: half-life (h)
One number for each entry, in h.

Find the recorded half-life belonging to CN1C(=O)[C@@H](NC(=O)c2nnc(Cc3ccccc3)[nH]2)Cc2cn(-c3ncccc3OC(F)F)c3cccc1c23 and report it. 1.91
